# Test system: Staphylococcus aureus
# Protocol Summary: Antibacterial activity against methicillin-resistant Staphylococcus aureus
# Type: functional
Observation Type: MIC

Exercise: GET /values?readout=MIC&system=Staphylococcus aureus&item= CC[C@@H](C(=O)[C@@H](C)[C@@H](O)[C@H](C)[C@@H]1O[C@@H]([C@@H](CC)C(=O)OCc2cc([N+](=O)[O-])cc([N+](=O)[O-])c2)CC[C@@H]1C)[C@H]1O[C@]2(C=C[C@@H](O)[C@]3(CC[C@@](C)([C@H]4CC[C@](O)(CC)[C@H](C)O4)O3)O2)[C@H](C)C[C@@H]1C
Solution: 8 to 16 µg/mL

Exercise: Value wanted: MIC (Staphylococcus aureus) of entry CC[C@@H](C(=O)[C@@H](C)[C@@H](O)[C@H](C)[C@@H]1O[C@@H]([C@@H](CC)C(=O)NCc2ccc(F)cc2)CC[C@@H]1C)[C@H]1O[C@]2(C=C[C@@H](O)[C@]3(CC[C@@](C)([C@H]4CC[C@](O)(CC)[C@H](C)O4)O3)O2)[C@H](C)C[C@@H]1C
Solution: 16 to 64 µg/mL
